Each record here notes measured growth.
- System: HT29 colon
- Test Method Notes: NCI-60 one-dose screen, 48 h (100 = growth as untreated, 0 = no growth, -100 = all killed)
- Condition Context: 10 µM unless noted
Compounds without any hit were thinned out: in the full panel of roughly 83,000, 20% have a hit. Active and inactive are the calls of the source. Rule for the calls: active = growth percent below 10; inactive = the rest.

Example cases with answers are listed next.
FC(F)(F)c1ccc(-c2cnc(-c3nn[nH]n3)nc2NC2CCCCCC2)cc1
66.8% [50 µM] (inactive)
NS(=O)(=O)c1ccc(-n2ncc3c(SCc4ccccc4)ncnc32)cc1
94.1% (inactive)
CC(=O)N1N=C(c2ccc(Cl)cc2)CC1c1c(C)nn(-c2ccccc2)c1N(C)Cc1ccccc1 (stereo not given)
58.5% (inactive)
O=C1/C(=C/c2ccccc2O)C(=S)SN1Cc1ccco1
87.6% (inactive)
C(#Cc1ccccc1C#Cc1ccccn1)c1ccc(OCCCCCCOc2ccc(C#Cc3ccccc3C#Cc3ccccn3)cc2)cc1
93% (inactive)

# get_value(readout='growth', item= C[C@]12CCC(=O)C=C1CCC1C2[C@@H](O)C[C@@]2(C)C1CC[C@]2(O)C(=O)COC(=O)CCC(=O)O (stereo not given in full) )
107% (inactive)

Form field: reported growth of `CC(=O)[C@H]1CC[C@H]2[C@@H]3C[C@H](C)C4=CC(=O)CC[C@]4(C)[C@H]3C(=O)C[C@]12C`
101% (inactive)

Requested field: growth. Item: O=C(c1ccccc1)C(CN1CCCCC1)c1ccccc1 (stereo not given)
-13.4% (active)

Bench note: what growth did `O=c1sc2ncnc3ncn1c32` show?
56.2% (inactive)

May I ask what growth has been recorded for N#CSCC1CC(O)(c2ccccc2)C(c2ccccc2)C(c2ccc(Cl)cc2)O1 (stereo not given) ?
1.18% (active)
